# PROTOCOL TEXT: Toxicity to KHYG1 NK cells (Trypan blue exclusion)
# Assay type: cell-based, human
# CONDITION CONTEXT: human, viability of KHYG1 NK cells after 24 h, n = 3
MEASURED PARAMETER: viability at 24 h, 10 µM (%)
Field: numeric (%). Do not append units.

For the compound CN1Cc2cc(-c3ccc(-c4cncc(NS(=O)(=O)c5ccc(F)cc5F)c4)s3)ccc2C1=O , give its measured viability at 24 h, 10 µM value.
100

For the compound Cc1ccc(NS(=O)(=O)c2ccc(F)cc2F)cc1-c1ccc(-c2ccc3c(c2)CN(C)C3=O)s1 , give its measured viability at 24 h, 10 µM value.
91.7

For the compound CN1Cc2cc(-c3ccc(-c4cncc(NS(=O)(=O)c5cccc(C#N)c5)c4)s3)ccc2C1=O , give its measured viability at 24 h, 10 µM value.
94.4

For the compound CN1Cc2cc(-c3ccc(-c4cncc(NS(=O)(=O)c5ccc([N+](=O)[O-])cc5)c4)s3)ccc2C1=O , give its measured viability at 24 h, 10 µM value.
85

For the compound CN1Cc2cc(-c3ccc(-c4cncc(NS(=O)(=O)c5cccc(C(F)(F)F)c5)c4)s3)ccc2C1=O , give its measured viability at 24 h, 10 µM value.
100

For the compound CN1Cc2cc(-c3ccc(-c4cncc(NS(=O)(=O)c5ccc(S(C)(=O)=O)cc5)c4)s3)ccc2C1=O , give its measured viability at 24 h, 10 µM value.
90

For the compound CN1Cc2cc(-c3ccc(-c4cnc(Cl)c(NS(=O)(=O)c5ccc(F)cc5F)c4)s3)ccc2C1=O , give its measured viability at 24 h, 10 µM value.
94

----------
# STUDY TARGET: recombinant perforin (Mus musculus)
# Sequence (P10820 21-554): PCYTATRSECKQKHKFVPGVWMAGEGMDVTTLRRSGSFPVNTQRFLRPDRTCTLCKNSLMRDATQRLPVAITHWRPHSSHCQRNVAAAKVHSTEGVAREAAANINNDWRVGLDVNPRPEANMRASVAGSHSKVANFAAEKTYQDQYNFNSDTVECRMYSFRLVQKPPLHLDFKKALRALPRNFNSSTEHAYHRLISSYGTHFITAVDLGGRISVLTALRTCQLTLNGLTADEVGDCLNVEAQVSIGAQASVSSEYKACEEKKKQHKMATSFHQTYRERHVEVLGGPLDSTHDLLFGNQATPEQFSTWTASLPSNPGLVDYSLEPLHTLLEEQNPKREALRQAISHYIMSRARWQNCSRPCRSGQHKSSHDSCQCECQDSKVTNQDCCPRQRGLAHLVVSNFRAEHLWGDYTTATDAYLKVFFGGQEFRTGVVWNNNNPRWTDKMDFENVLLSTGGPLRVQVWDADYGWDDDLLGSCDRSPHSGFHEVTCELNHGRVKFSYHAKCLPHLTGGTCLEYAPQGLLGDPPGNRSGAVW
# PROTOCOL TEXT: Inhibition of perforin-mediated lysis of Jurkat cells (51Cr release)
# Assay type: cell-based
# CONDITION CONTEXT: recombinant perforin pre-incubated with compound 30 min; 51Cr-labelled Jurkat cells, 0.1% BSA, 4 h
MEASURED PARAMETER: Inhibition of Jurkat Cell Lysis IC50

{"STRUCTURE STRING": "CN1Cc2cc(-c3ccc(-c4cncc(NC(=O)c5ccc(F)cc5F)c4)s3)ccc2C1=O", "RESULT": "complete loss of potency"}
{"STRUCTURE STRING": "Cc1ccc(NS(=O)(=O)c2ccc(F)cc2F)cc1-c1ccc(-c2ccc3c(c2)CN(C)C3=O)s1", "RESULT": "complete loss of potency"}
